human norepinephrine transporter (Homo sapiens): reported pKi for various molecules.
Structures can show the parent of a compound that is named as a salt.
The scale used: pKi is minus the common logarithm of the concentration in molar units.

Examples with answers:
- Fc1ccccc1-c1nc(C2CCNCC2)nc2ccccc12 [Example 41, hydrochloride]: 8.40
- c1ccc(-c2nc(N[C@H]3CCNC3)nc3ccccc23)cc1 [Example 17, hydrochloride]: 7.35
- Clc1cccc(Cl)c1-c1nc(N2CCNCC2)nc2ccccc12: 7.75
- Fc1ccc(-c2nc(N3CC[C@@H]4CNC[C@@H]43)nc3cc(F)ccc23)c(F)c1: 7.04
- C[C@@H]1CNCCN1c1nc(-c2ccccc2)c2ccccc2n1.Cl [Example 30, hydrochloride]: 8.26
- C[C@@H]1CNCCN1c1nc(-c2cccc(F)c2F)c2ccc(F)cc2n1: 7.61
- c1ccc(-c2nc(N3CC4CC3CN4)nc3ccccc23)cc1 (stereo not drawn) [Example 10, hydrochloride]: 8.47
- Fc1ccc(-c2nc(NC3CNC3)nc3cc(F)ccc23)c(F)c1: 6.99

Request: pKi, test system human norepinephrine transporter (Homo sapiens), entry Fc1cccc(F)c1-c1nc(N2CCNCC2)nc2ccccc12 [Example 29, hydrochloride] 8.32

Request: pKi, test system human norepinephrine transporter (Homo sapiens), entry Cl.c1ccc(-c2nc(N3CCCNCC3)nc3ccccc23)cc1 [Example 7, hydrochloride] 8.70

Request: pKi, test system human norepinephrine transporter (Homo sapiens), entry Cl.N[C@H]1CCN(c2nc(-c3ccccc3)c3ccccc3n2)C1 [Example 14, hydrochloride] 8.43

Request: pKi, test system human norepinephrine transporter (Homo sapiens), entry Cc1cc(F)ccc1-c1nc(N2CCNCC2)nc2cc(Cl)ccc12 7.17

Request: pKi, test system human norepinephrine transporter (Homo sapiens), entry COc1ccccc1-c1nc(N2CCNCC2)nc2cc(F)ccc12 7.37

Request: pKi, test system human norepinephrine transporter (Homo sapiens), entry c1ccc(-c2nc(N3C4CCCC3CNC4)nc3ccccc23)cc1 7.96

Request: pKi, test system human norepinephrine transporter (Homo sapiens), entry Fc1ccc2c(-c3c(F)cccc3F)nc(N[C@H]3CCNC3)nc2c1 7.53

Request: pKi, test system human norepinephrine transporter (Homo sapiens), entry Fc1ccc2c(-c3nccs3)nc(N3CCNCC3)nc2c1 7.25

Request: pKi, test system human norepinephrine transporter (Homo sapiens), entry Fc1ccc2c(-c3ccccc3F)nc(C3CCNCC3)nc2c1 8.48

Request: pKi, test system human norepinephrine transporter (Homo sapiens), entry CC(C)c1nc(N2CCCNCC2)nc2ccccc12.Cl [Example 8, hydrochloride] 8.32

Request: pKi, test system human norepinephrine transporter (Homo sapiens), entry C[C@H]1CNCCN1c1nc(-c2ccccc2)c2ccc(F)cc2n1 7.74

Request: pKi, test system human norepinephrine transporter (Homo sapiens), entry Fc1ccc(F)c(-c2nc(C3CCNCC3)nc3ccccc23)c1F 7.80

Request: pKi, test system human norepinephrine transporter (Homo sapiens), entry CN1CCN(c2nc(-c3cccs3)c3ccccc3n2)CC1.O=C(O)C(=O)O [Example 27, oxalate] 7.17

Request: pKi, test system human norepinephrine transporter (Homo sapiens), entry CC(C)[C@H]1CNCCN1c1nc(-c2cccc(F)c2F)c2ccccc2n1 7.10

Request: pKi, test system human norepinephrine transporter (Homo sapiens), entry Cl.Fc1ccccc1-c1nc(N2CC3CNCC3C2)nc2ccccc12 (stereo not drawn) [Example 39, hydrochloride] 7.39

* * *

- TESTED_ON: human serotonin transporter (Homo sapiens, UniProt P31645)
- Sequence (P31645 whole entry): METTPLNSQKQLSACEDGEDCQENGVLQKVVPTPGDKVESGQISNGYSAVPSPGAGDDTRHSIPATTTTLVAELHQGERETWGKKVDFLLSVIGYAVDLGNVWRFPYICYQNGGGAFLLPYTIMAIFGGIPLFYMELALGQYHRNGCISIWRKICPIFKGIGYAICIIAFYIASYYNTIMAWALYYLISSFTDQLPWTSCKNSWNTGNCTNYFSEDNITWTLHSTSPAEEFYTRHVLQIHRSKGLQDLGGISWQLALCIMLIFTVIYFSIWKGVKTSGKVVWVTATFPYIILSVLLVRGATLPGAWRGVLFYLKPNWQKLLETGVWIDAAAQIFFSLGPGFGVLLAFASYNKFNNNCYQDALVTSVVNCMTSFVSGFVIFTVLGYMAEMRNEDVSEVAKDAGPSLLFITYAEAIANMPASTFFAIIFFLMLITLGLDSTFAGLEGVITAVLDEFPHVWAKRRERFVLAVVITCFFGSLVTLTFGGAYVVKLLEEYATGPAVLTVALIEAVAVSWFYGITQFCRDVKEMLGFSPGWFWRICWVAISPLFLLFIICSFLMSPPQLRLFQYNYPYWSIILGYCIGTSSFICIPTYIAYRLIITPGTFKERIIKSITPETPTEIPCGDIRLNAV
PROPERTY_LABEL: pKi
The scale used: pKi is minus the common logarithm of the concentration in molar units.

Examples with answers:
• Clc1ccc(Cl)c(-c2nc(N3CCNCC3)nc3ccccc23)c1 = 6.20
• C[C@@H]1CNCCN1c1nc(-c2cccc(F)c2F)c2ccc(F)cc2n1 = 7.35
• Fc1ccc(-c2nc(NC3CCNCC3)nc3ccccc23)c(F)c1 = 5.27
• CNC1CCN(c2nc(-c3c(F)cccc3F)c3ccccc3n2)CC1 = 5.26
• Fc1ccc2c(-c3ccc(Cl)cc3Cl)nc(N3CCNCC3)nc2c1 = 7.47

Request: pKi, test system human serotonin transporter (Homo sapiens, UniProt P31645), entry Fc1ccc2nc(N3CCNCC3)nc(-c3cccc(F)c3F)c2c1 7.49

Request: pKi, test system human serotonin transporter (Homo sapiens, UniProt P31645), entry COc1cccc(-c2nc(N3CCNCC3)nc3ccccc23)c1 6.82

Request: pKi, test system human serotonin transporter (Homo sapiens, UniProt P31645), entry CC[C@H]1CNCCN1c1nc(-c2ccc(F)cc2F)c2ccccc2n1 7.84

* * *

# melting point annotations

* CN1CCN(c2nc(-c3ccccc3F)c3ccccc3n2)CC1 [Example 18] | 123 to 124 °C

Dear colleague, I am looking for the recorded melting point of the following compound: CC(C)c1nc(N2CCCNCC2)nc2ccccc12.Cl [Example 8] 193 to 194 °C

Dear colleague, I am looking for the recorded melting point of the following compound: Cl.Fc1cccc(Cl)c1-c1nc(N2CCNCC2)nc2ccccc12 [Example 36] 266 to 268 °C

* * *

# melting point annotations
Where a name gives a salt, the structure may show the parent alone.

Examples with answers:
• COC(=O)C1(c2nc(-c3ccccc3)c3ccccc3n2)CCNCC1.Cl = 227 to 228 °C
• Cl.Fc1cccc(-c2nc(N3CCNCC3)nc3ccccc23)c1F = 273 to 276 °C
• Cl.NC1CCN(c2nc(-c3ccccc3)c3ccccc3n2)CC1 = > 300 °C
• CN[C@H]1CCN(c2nc(-c3ccccc3F)c3ccccc3n2)C1 (as salt: hydrochloride) = 257 to 258 °C
• C[C@@H]1CNCCN1c1nc(-c2ccccc2)c2ccccc2n1.Cl = 150 to 161 °C

Dear colleague, I am looking for the recorded melting point of the following compound: Cl.c1ccc(-c2nc(N3CCCNCC3)nc3ccccc23)cc1 230 to 231 °C

Dear colleague, I am looking for the recorded melting point of the following compound: COC(=O)C1(c2nc(-c3ccccc3)c3ccccc3n2)CCCNC1.Cl (stereo not drawn) 143 to 145 °C

Dear colleague, I am looking for the recorded melting point of the following compound: Cl.Fc1ccccc1-c1nc(N2CCCNCC2)nc2ccccc12 190 to 192 °C

Dear colleague, I am looking for the recorded melting point of the following compound: Fc1cccc(-c2nc(N3CCCNCC3)nc3ccccc23)c1F 203 to 206 °C

* * *

# pKi annotations
- TESTED_ON: human norepinephrine transporter (Homo sapiens, UniProt P23975)
- Construct: host or cells: HEK-293
- Sequence (P23975 whole entry): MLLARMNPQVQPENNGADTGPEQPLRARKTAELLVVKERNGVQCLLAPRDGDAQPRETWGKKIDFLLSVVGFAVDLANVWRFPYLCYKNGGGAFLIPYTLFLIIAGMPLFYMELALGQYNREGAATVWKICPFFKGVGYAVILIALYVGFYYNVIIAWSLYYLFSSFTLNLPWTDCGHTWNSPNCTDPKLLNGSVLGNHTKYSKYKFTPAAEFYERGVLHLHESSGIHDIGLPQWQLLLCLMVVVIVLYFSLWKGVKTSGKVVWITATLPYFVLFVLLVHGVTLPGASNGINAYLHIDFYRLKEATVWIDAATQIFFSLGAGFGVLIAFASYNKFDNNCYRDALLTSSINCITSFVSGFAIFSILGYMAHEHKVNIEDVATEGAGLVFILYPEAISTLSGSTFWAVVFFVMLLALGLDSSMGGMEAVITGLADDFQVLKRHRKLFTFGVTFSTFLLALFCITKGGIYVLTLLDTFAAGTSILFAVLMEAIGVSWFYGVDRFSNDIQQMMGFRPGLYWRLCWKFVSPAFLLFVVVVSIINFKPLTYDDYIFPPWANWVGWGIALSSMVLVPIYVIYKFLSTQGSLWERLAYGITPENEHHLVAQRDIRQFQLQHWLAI
- EXPERIMENT: hNET receptor binding ([125I]-RTI-55, membranes of transfected HEK-293 cells)
- ASSAY_CONTEXT: 50 pM [125I]-RTI-55, 90 min room temperature; IC50 converted by Cheng-Prusoff
Where a name gives a salt, the structure may show the parent alone.
The scale used: pKi is minus the common logarithm of the concentration in molar units.

• COc1ccccc1-c1nc(C2CCNCC2)nc2ccccc12 [Example 46, hydrochloride] = 7.22
• Cl.Fc1cccc(-c2nc(N3CCNCC3)nc3ccccc23)c1F [Example 37, hydrochloride] = 8.52
• Cl.c1ccc(-c2nc(N3CC4CCCC(C3)N4)nc3ccccc23)cc1 [Example 32, hydrochloride] = 7.41

Next, consider the following molecule.
Dear colleague, I am looking for the recorded pKi of the following molecule: NCCCNc1nc(-c2cccc(F)c2F)c2ccccc2n1 6.91

* * *

- TESTED_ON: human serotonin transporter (Homo sapiens, UniProt P31645)
- Construct: host or cells: HEK-293
- EXPERIMENT: hSERT receptor binding ([125I]-RTI-55, membranes of transfected HEK-293 cells)
- ASSAY_CONTEXT: 50 pM [125I]-RTI-55, 90 min room temperature; IC50 converted by Cheng-Prusoff
# Ki annotations
Give the quantity in nM, number only.

Examples with answers:
- CNC1CCN(c2nc(-c3cccc(F)c3F)c3ccccc3n2)CC1: 6030
- Clc1cccc(-c2nc(N3CCNCC3)nc3ccccc23)c1: 119
- C[C@H]1CNCCN1c1nc(-c2c(F)cccc2F)c2ccc(F)cc2n1: 30.8

Next, consider the following compound.
Dear colleague, I am looking for the recorded Ki of the following compound: N[C@@H]1CCN(c2nc(-c3c(F)cccc3F)c3ccccc3n2)C1 322

* * *

human norepinephrine transporter (Homo sapiens, UniProt P23975): reported pKi for various molecules.
The scale used: pKi is minus the common logarithm of the concentration in molar units.

- N[C@H]1CCN(c2nc(-c3c(F)cccc3F)c3ccc(F)cc3n2)C1: 7.63
- N[C@@H]1CCN(c2nc(-c3cccc(F)c3F)c3ccc(F)cc3n2)C1: 7.87
- Fc1ccc2c(-c3c(F)cccc3F)nc(N3CCNCC3)nc2c1: 7.70
- Cl.N[C@@H]1CCN(c2nc(-c3ccccc3)c3ccccc3n2)C1 [Example 16, hydrochloride]: 7.51

Next, consider the following molecule.
Dear colleague, I am looking for the recorded pKi of the following molecule: COC(=O)C1(c2nc(-c3ccccc3)c3ccccc3n2)CCCNC1.Cl (centres unmarked) [Example 52, hydrochloride] 7.27
